# pKd per record follows
- studyTarget: Recombinant human his-tagged IGF R extracellular domain protein (human) (UniProt P08069)
- method: SPR, Ab captured via anti-huIgG Fc, dissociation at pH 6
pKd: −log10 of the molar value.
parameter: pKd

binder: VRDN-02003 (antibody, V domains shown) VH: QVQLQESGPGLVKPSETLSLTCTVSGYHITGGYLWNWIRQPPGKGLEWIGYISYDGTNNYKPSLKDRVTISRDTSKNQFSLKLSSVTAADTAVYYCARYGRVFFDYWGQGTLVTVSS VL: DIVMTQSPLSLPVTPGEPASISCRSSQSIVHSNGNTYLQWYLQKPGQSPQLLIYKVSNRLYGVPDRFSGSGSGTDFTLKISRVEAEDVGVYYCFQGSHVPWTFGQGTKVEIK
parameter: pKd
measuredResult: 9.00
--
binder: VRDN-02067 (antibody, V domains shown) VH: QVQLQESGPGLVKPSETLSLTCTVSGYSITGGYLWNWIRQPPGKGLEWIGYISYDGTNNYKPSLKDRVTISRDTSKNQFSLKLSSVTAADTAVYYCARHGRVFFDYWGQGTLVTVSS VL: DIVMTQSPLSLPVTPGEPASISCRSSQSIVHSNGNTYLQWYLQKPGQSPQLLIYKVSNRLYGVPDRFSGSGSGTDFTLKISRVEAEDVGVYYCFQGSHVHWTFGQGTKVEIK
parameter: pKd
measuredResult: 9.51
--
binder: VRDN-02009 (antibody, V domains shown) VH: QVQLQESGPGLVKPSETLSLTCTVSGYSITGGYHWNWIRQPPGKGLEWIGYISYDGTNNYKPSLKDRVTISRDTSKNQFSLKLSSVTAADTAVYYCARYGRVFFDYWGQGTLVTVSS VL: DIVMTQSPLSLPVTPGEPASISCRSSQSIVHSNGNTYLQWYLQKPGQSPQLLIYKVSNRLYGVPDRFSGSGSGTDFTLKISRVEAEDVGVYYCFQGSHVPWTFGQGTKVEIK
parameter: pKd
measuredResult: 9.01
--
binder: VRDN-02064 (antibody, V domains shown) VH: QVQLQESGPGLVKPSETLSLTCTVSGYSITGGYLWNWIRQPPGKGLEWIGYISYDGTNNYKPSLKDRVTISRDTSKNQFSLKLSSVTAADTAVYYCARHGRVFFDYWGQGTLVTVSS VL: DIVMTQSPLSLPVTPGEPASISCRSSQSIVHSNGNTYLQWYLQKPGQSPQLLIYKVSNRLYGVPDRFSGSGSGTDFTLKISRVEAEDVGVYYCFHGSHVPWTFGQGTKVEIK
parameter: pKd
measuredResult: 9.84
--
binder: VRDN-02015 (antibody, V domains shown) VH: QVQLQESGPGLVKPSETLSLTCTVSGYSITGGYLWNWIRQPPGKGLEWIGYISHDGTNNYKPSLKDRVTISRDTSKNQFSLKLSSVTAADTAVYYCARYGRVFFDYWGQGTLVTVSS VL: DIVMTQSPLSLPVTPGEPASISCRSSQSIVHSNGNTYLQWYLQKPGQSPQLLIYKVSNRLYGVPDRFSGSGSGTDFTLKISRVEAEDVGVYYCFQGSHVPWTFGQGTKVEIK
parameter: pKd
measuredResult: 9.02

Where these numbers come from: patent US20240360227A1
